# System: HT29 colon cancer cells
# ASSAY_DETAILS: Cytotoxicity against HT29 colon cancer cells
# Type: cell-based, human
# TEST_PARAMETERS: IC50 CRL1790 / IC50 HT29
Catalogue of HT29 SI (selectivity index) readings, one per entry.
ATTRIBUTE_MEASURED: HT29 SI (selectivity index)

>>> print(df.to_string())
                                   compound              test_target  experimental_result
0  COc1ccc(/C=C2\CNC/C(=C\c3ccc(O)c(CN4CCCC4)c3)C2=O)cc1OC  HT29 colon cancer cells                 16.8
1  O=c1[nH]cc(F)c(=O)[nH]1 [Compound 5-FU, 5-fluorouracil, reference compound]  HT29 colon cancer cells                 1.22
2  COc1ccc(C=C2CNCC(=Cc3ccc(O)c(CN(C)C)c3)C2=O)cc1OC.Cl.Cl  HT29 colon cancer cells                 9.72
3  COc1ccc(/C=C2\CNC/C(=C\c3ccc(O)c(CN4CCN(C)CC4)c3)C2=O)cc1  HT29 colon cancer cells                 17.4
4  Cc1ccc(/C=C2\CNC/C(=C\c3ccc(O)c(CN4CCN(C)CC4)c3)C2=O)cc1  HT29 colon cancer cells                 31.8
5  COc1ccc(/C=C2\CNC/C(=C\c3ccc(O)c(CN4CCCCC4)c3)C2=O)cc1OC  HT29 colon cancer cells                 43.5
6  CN1CCN(Cc2cc(/C=C3\CNC/C(=C\c4ccc([N+](=O)[O-])cc4)C3=O)ccc2O)CC1  HT29 colon cancer cells                 49.4
7  CN1CCN(Cc2cc(/C=C3\CNC/C(=C\c4ccc(F)cc4)C3=O)ccc2O)CC1  HT29 colon cancer cells                 48.5
8  COc1ccc(/C=C2\CNC/C(=C\c3ccc(O)c(CN4CCOCC4)c3)C2=O)cc1OC  HT29 colon cancer cells                 7.31
9  COc1ccc(/C=C2\CNC/C(=C\c3ccc(O)c(CN4CCN(C)CC4)c3)C2=O)cc1OC  HT29 colon cancer cells                 16.7
